# Assay Text: kinase inhibitors altering Pseudomonas killing of worms, whole organism (AID 651566);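 further: tested at 14 µM; sign flipped so higher z means a lower ratio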
# Experimental Setup: C. elegans killed by P. aeruginosa, survival ratio
Entry flag: Criterion met if z-score reaches 0.1; Criterion not met if it does not.

Some solved entries appear below for comparison.
{"columns": ["Molecule", "Category"],
 "data": [
  ["Clc1ccc(CNc2nccc(-c3cnn4ncccc34)n2)cc1", "Criterion met"],
  ["CN(C)C(=O)O[C@@H]1CN[C@@H](C#Cc2cc3ncnc(Nc4ccc(OCc5cccc(F)c5)c(Cl)c4)c3s2)C1", "Criterion met"],
  ["NS(=O)(=O)c1ccc(N=Nc2c(O)[nH]c3ccc(C(=O)NCc4ccncc4)cc23)cc1", "Criterion not met"]
]}

# check: z-score of COc1ccc(-c2cc(C3CNNC3c3ccccn3)ccn2)cc1 (centres undefined) is greater than or equal to 0.1 Criterion not met

Say whether "CCn1c(-c2nonc2N)nc2ccncc21" shows z-score of 0.1 or more. Criterion not met

For this molecule, is measured z-score 0.1 or higher? "NS(=O)(=O)c1ccc(N=Nc2c(O)[nH]c3ccc(C(=O)NCCc4cnc[nH]4)cc23)cc1" Criterion not met

Does the reported z-score for "COc1cccc(-n2ncc3c(N/N=C/c4ccc(C)cc4)ncnc32)c1" fall at or above the 0.1 mark? Criterion not met

# check: z-score of "Nc1nccc(C#Cc2cncnc2Nc2ccc(OCc3cccc(F)c3)c(Cl)c2)n1" is greater than or equal to 0.1 Criterion met

Does the reported z-score for "Cc1ccc2c(-c3ccnc(Nc4ccccc4)n3)c(-c3ccc(F)cc3)nn2n1" fall at or above the 0.1 mark? Criterion met

Please indicate if the recorded z-score for "CCn1c(-c2nonc2N)nc2cncc(C(=O)N3CCNCC3)c21" meets or exceeds 0.1. Criterion not met
